Data provenance is paper PMC7393058.

Tested on: single cycle replicable HIV NL4-3
experiment: single-round replication assay, inhibition of p24 expression (capture ELISA) in Hela cells
Assay type: cell-based, HIV-1
assayConditions: Human immunodeficiency virus 1, NL43, HeLa, 72 h
pEC50: −log10 of the molar value.
quantity: pEC50

substancesmiles=Cn1c(=O)c2c(C(=O)NN=Cc3ccc(Cl)cc3)cc(=O)[nH]c2n(C)c1=O quantity=pEC50 valueoperator== recordednumber=3.96
substancesmiles=Cn1c(=O)c2c(C(=O)NN=Cc3cccc(F)c3)cc(=O)[nH]c2n(C)c1=O quantity=pEC50 valueoperator== recordednumber=3.85
substancesmiles=Cn1c(=O)c2c(C(=O)NN=Cc3ccccc3Cl)cc(=O)[nH]c2n(C)c1=O quantity=pEC50 valueoperator== recordednumber=3.81
substancesmiles=COc1cccc(C=NNC(=O)c2cc(=O)[nH]c3c2c(=O)n(C)c(=O)n3C)c1 quantity=pEC50 valueoperator== recordednumber=3.74
substancesmiles=Cc1ccc(C=NNC(=O)c2cc(=O)[nH]c3c2c(=O)n(C)c(=O)n3C)cc1 quantity=pEC50 valueoperator== recordednumber=4.05
substancesmiles=Cn1c(=O)c2c(C(=O)NN=Cc3cccc(Cl)c3)cc(=O)[nH]c2n(C)c1=O quantity=pEC50 valueoperator== recordednumber=3.92
substancesmiles=Cc1cccc(C=NNC(=O)c2cc(=O)[nH]c3c2c(=O)n(C)c(=O)n3C)c1 quantity=pEC50 valueoperator== recordednumber=3.90
substancesmiles=Cn1c(=O)c2c(C(=O)NN=Cc3ccccc3)cc(=O)[nH]c2n(C)c1=O quantity=pEC50 valueoperator=< recordednumber=3.70
substancesmiles=COc1ccc(C=NNC(=O)c2cc(=O)[nH]c3c2c(=O)n(C)c(=O)n3C)cc1 quantity=pEC50 valueoperator== recordednumber=3.85
substancesmiles=COc1ccccc1C=NNC(=O)c1cc(=O)[nH]c2c1c(=O)n(C)c(=O)n2C quantity=pEC50 valueoperator== recordednumber=3.92

====

System: single cycle replicable HIV NL4-3
experiment: single-round replication assay, inhibition of p24 expression (capture ELISA) in Hela cells
Type: cell-based, HIV-1
assayConditions: selectivity index, CC50/EC50 ratio
Below, each of the molecules is paired with its reported SI=CC50/EC50 value.
quantity: SI=CC50/EC50

substancesmiles=Cn1c(=O)c2c(C(=O)NN=Cc3ccccc3Cl)cc(=O)[nH]c2n(C)c1=O testsystem="single cycle replicable HIV NL4-3" recordednumber=2.4
substancesmiles=Cc1cccc(C=NNC(=O)c2cc(=O)[nH]c3c2c(=O)n(C)c(=O)n3C)c1 testsystem="single cycle replicable HIV NL4-3" recordednumber=4.8
substancesmiles=Cn1c(=O)c2c(C(=O)NN=Cc3ccccc3)cc(=O)[nH]c2n(C)c1=O testsystem="single cycle replicable HIV NL4-3" recordednumber=1.2
substancesmiles=COc1cccc(C=NNC(=O)c2cc(=O)[nH]c3c2c(=O)n(C)c(=O)n3C)c1 testsystem="single cycle replicable HIV NL4-3" recordednumber=1.1
substancesmiles=Cn1c(=O)c2c(C(=O)NN=Cc3cccc(Cl)c3)cc(=O)[nH]c2n(C)c1=O testsystem="single cycle replicable HIV NL4-3" recordednumber=3.75
substancesmiles=Cn1c(=O)c2c(C(=O)NN=Cc3ccc(Cl)cc3)cc(=O)[nH]c2n(C)c1=O testsystem="single cycle replicable HIV NL4-3" recordednumber=4.5
substancesmiles=Cn1c(=O)c2c(C(=O)NN=Cc3cccc(F)c3)cc(=O)[nH]c2n(C)c1=O testsystem="single cycle replicable HIV NL4-3" recordednumber=2.7
substancesmiles=COc1ccccc1C=NNC(=O)c1cc(=O)[nH]c2c1c(=O)n(C)c(=O)n2C testsystem="single cycle replicable HIV NL4-3" recordednumber=3.75
substancesmiles=COc1ccc(C=NNC(=O)c2cc(=O)[nH]c3c2c(=O)n(C)c(=O)n3C)cc1 testsystem="single cycle replicable HIV NL4-3" recordednumber=1.3
